# Tested on: mouse IL-31 gene
# Test protocol: IL-31 production inhibitory action: IL-31 gene expression by real-time PCR in antigen-stimulated CD4+ T cells from Dock8−/− AND Tg mice
# Assay type: cell-based
# Test parameters: Mus musculus, CD4+ T, 24 h; 0.625 μM; read-out: qPCR results (IL-31 production (%)): based on the case using 0.1% DMSO taken as 100%
Result type: activity at 0.625 µM (%)
Answers are plain numbers, in %.

O=C(O)c1ccc(-c2cc(-c3cc(C(F)(F)F)ccc3Cl)no2)cc1 [Compound 21]    23
O=C(O)c1ccc(-n2ccc(-c3cc(C(F)(F)F)ccc3Cl)n2)cc1 [Compound 30]    23.4
CC(C)c1ccc(-c2cc(-c3ccc(C(=O)O)cc3)n[nH]2)cc1 [Compound 28]    42.6
O=C(O)c1ccc(-c2cc(-c3cc(C(F)(F)F)ccc3Cl)[nH]n2)cc1 [Compound 29]    61.9
O=C(O)c1ccc(-c2ncc(-c3cc(C(F)(F)F)ccc3Cl)[nH]2)cc1 [Compound 27]    43.1
CC(C)c1ccc(C(=O)Nc2nnc(-c3ccc(C(=O)O)cc3)s2)cc1 [Compound 34]    48.3
O=C(O)c1ccc(-c2nnc(-c3cc(C(F)(F)F)ccc3Cl)o2)cc1 [Compound 32]    39.9
O=C(O)c1ccc(-c2cnc(-c3cc(C(F)(F)F)ccc3Cl)o2)cc1 [Compound 20]    24.7

Record activity at 0.625 µM for all entries; do not skip any.
1. CC(C)c1ccc(-c2nnc(-c3ccc(C(=O)O)cc3)o2)cc1 [Compound 31]
2. O=C(O)c1ccc(-c2nc(-c3cc(C(F)(F)F)ccc3Cl)no2)cc1 [Compound 33]

[53.6, 25.1]

* * *

# Test system: CD4+ T cells
# Test protocol: T cell proliferation assay (PMA and ionomycin, 3H-thymidine incorporation)
# Assay type: cell-based, mouse
# Test parameters: Mus musculus, CD4+ T, 66 h; 5 μM; read-out: Cell proliferation (%): based on the case using 0.2% DMSO taken as 100%
Result type: activity at 5 µM
A complete answer gives the number and then names the unit.

Completed entries (count: 3):
O=C(O)c1ccc(-c2cn(-c3cc(C(F)(F)F)ccc3Cl)nn2)cc1    110%
CN(C)c1ccc(-c2cnc(-c3ccc(C(=O)O)cc3)o2)cc1    86.3%
O=C(O)c1ccc(-c2cn(-c3cc(C(F)(F)F)ccc3F)nn2)cc1    88.1%

Return reported activity at 5 µM; argument: O=C(O)c1ccc(-c2ncc(-c3cc(C(F)(F)F)ccc3Cl)[nH]2)cc1
86.2%

* * *

Assign activity at 20 µM to each entry below.
# Test system: CD4+ T cells
# Test protocol: T cell proliferation assay (PMA and ionomycin, 3H-thymidine incorporation)
# Assay type: cell-based, mouse
# Test parameters: Mus musculus, CD4+ T, 66 h; 20 μM; read-out: Cell proliferation (%): based on the case using 0.2% DMSO taken as 100%

O=C(O)c1ccc(-c2cc(-c3cc(C(F)(F)F)ccc3Cl)no2)cc1 [Compound 21]    98.2%
CC(C)c1ccc(-c2cc(-c3ccc(C(=O)O)cc3)n[nH]2)cc1 [Compound 28]    89.5%
O=C(O)c1ccc(-n2ccc(-c3cc(C(F)(F)F)ccc3Cl)n2)cc1 [Compound 30]    90.3%

Record activity at 20 µM for all entries; do not skip any.
1. O=C(O)c1ccc(-c2cn(-c3cc(C(F)(F)F)ccc3F)nn2)cc1 [Compound 24]
2. CC(C)c1ccc(-c2nnc(-c3ccc(C(=O)O)cc3)o2)cc1 [Compound 31]
3. O=C(O)c1ccc(-c2cc(-c3cc(C(F)(F)F)ccc3Cl)[nH]n2)cc1 [Compound 29]
4. O=C(O)c1ccc(-c2ncc(-c3cc(C(F)(F)F)ccc3Cl)[nH]2)cc1 [Compound 27]

1. 71.3%
2. 79.3%
3. 77.7%
4. 70%

* * *

Assign activity at 0.312 µM to each entry below.
# Test system: mouse IL-31 gene
# Test protocol: IL-31 production inhibitory action: IL-31 gene expression by real-time PCR in antigen-stimulated CD4+ T cells from Dock8−/− AND Tg mice
# Assay type: cell-based
# Test parameters: Mus musculus, CD4+ T, 24 h; 0.312 μM; read-out: qPCR results (IL-31 production (%)): based on the case using 0.1% DMSO taken as 100%
Numbers only, in %.

Completed entries (count: 10):
O=C(O)c1ccc(-n2ccc(-c3cc(C(F)(F)F)ccc3Cl)n2)cc1    29.4
CN(C)c1ccc(-c2cnc(-c3ccc(C(=O)O)cc3)o2)cc1    67.6
O=C(O)c1ccc(-c2nc(-c3cc(C(F)(F)F)ccc3Cl)no2)cc1    37.9
O=C(O)c1ccc(-c2cc(-c3cc(C(F)(F)F)ccc3Cl)[nH]n2)cc1    52.3
O=C(O)c1ccc(-c2ncc(-c3cc(C(F)(F)F)ccc3Cl)[nH]2)cc1    39.6
O=C(O)c1ccc(-c2cn(-c3cc(C(F)(F)F)ccc3Cl)nn2)cc1    46.4
O=C(O)c1ccc(-c2nc(-c3cc(C(F)(F)F)ccc3Cl)n[nH]2)cc1    82.7
O=C(O)c1ccc(-c2nnc(-c3cc(C(F)(F)F)ccc3Cl)o2)cc1    52.1
O=C(O)c1ccc(-c2cn(-c3cc(C(F)(F)F)ccc3F)nn2)cc1    18.1
CC(C)c1ccc(-c2cc(-c3ccc(C(=O)O)cc3)n[nH]2)cc1    70.6

Record activity at 0.312 µM for all entries; do not skip any.
1. O=C(O)c1ccc(-c2cc(-c3cc(C(F)(F)F)ccc3Cl)no2)cc1
2. O=C(O)c1ccc(-c2cnc(-c3cc(C(F)(F)F)ccc3Cl)o2)cc1

1. 25.3
2. 23.3

* * *

# System: mouse IL-31 gene
# Test protocol: IL-31 production inhibitory action: IL-31 gene expression by real-time PCR in antigen-stimulated CD4+ T cells from Dock8−/− AND Tg mice
# Format: cell-based
# Test parameters: Mus musculus, CD4+ T, 24 h; 0.078 μM; read-out: qPCR results (IL-31 production (%)): based on the case using 0.1% DMSO taken as 100%
Is activity at 0.078 µM at least 30%? Then MET. If not, NOT MET.

Would you please look over these solved cases?
O=C(O)c1ccc(-c2nc(-c3cc(C(F)(F)F)ccc3Cl)no2)cc1    MET
O=C(O)c1ccc(-c2cnc(-c3cc(C(F)(F)F)ccc3Cl)o2)cc1    NOT MET
O=C(O)c1ccc(-c2ncc(-c3cc(C(F)(F)F)ccc3Cl)[nH]2)cc1    NOT MET
O=C(O)c1ccc(-n2ccc(-c3cc(C(F)(F)F)ccc3Cl)n2)cc1    MET

Switching to the query record.
Does O=C(O)c1ccc(-c2cc(-c3cc(C(F)(F)F)ccc3Cl)no2)cc1 have a reported activity at 0.078 µM of at least 30%?
NOT MET

* * *

Assign activity at 0.625 µM to each entry below.
# System: mouse IL-31 gene
# Test protocol: IL-31 production inhibitory action: IL-31 gene expression by real-time PCR in antigen-stimulated CD4+ T cells from Dock8−/− AND Tg mice
# Assay type: cell-based
# Test parameters: Mus musculus, CD4+ T, 24 h; 0.625 μM; read-out: qPCR results (IL-31 production (%)): based on the case using 0.1% DMSO taken as 100%
Numbers only, in %.

Completed entries (count: 4):
CC(C)c1ccc(-c2cnc(-c3ccc(C(=O)O)cc3)[nH]2)cc1    45.1
O=C(O)c1ccc(-c2cn(-c3cc(C(F)(F)F)ccc3F)nn2)cc1    32
O=C(O)c1ccc(-c2nc(-c3cc(C(F)(F)F)ccc3Cl)n[nH]2)cc1    85.6
CN(C)c1ccc(-c2cnc(-c3ccc(C(=O)O)cc3)o2)cc1    69.9

For the next question, use this compound.
Return reported activity at 0.625 µM; argument: O=C(O)c1ccc(-c2cn(-c3cc(C(F)(F)F)ccc3Cl)nn2)cc1
31.4

* * *

# Test system: CD4+ T cells
# Test protocol: T cell proliferation assay (PMA and ionomycin, 3H-thymidine incorporation)
# Assay type: cell-based, mouse
# Test parameters: Mus musculus, CD4+ T, 66 h; 20 μM; read-out: Cell proliferation (%): based on the case using 0.2% DMSO taken as 100%
Assign activity at 20 µM to each entry below.
Answers are plain numbers, in %.

O=C(O)c1ccc(-c2nc(-c3cc(C(F)(F)F)ccc3Cl)n[nH]2)cc1    81.3
O=C(O)c1ccc(-c2cn(-c3cc(C(F)(F)F)ccc3Cl)nn2)cc1    88.5
O=C(O)c1ccc(-c2nc(-c3cc(C(F)(F)F)ccc3Cl)no2)cc1    66.7

Record activity at 20 µM for all entries; do not skip any.
1. O=C(O)c1ccc(-c2cnc(-c3cc(C(F)(F)F)ccc3Cl)o2)cc1
2. O=C(O)c1ccc(-c2nnc(-c3cc(C(F)(F)F)ccc3Cl)o2)cc1
3. CC(C)c1ccc(-c2cnc(-c3ccc(C(=O)O)cc3)[nH]2)cc1
4. CN(C)c1ccc(-c2cnc(-c3ccc(C(=O)O)cc3)o2)cc1
5. CC(C)c1ccc(C(=O)Nc2nnc(-c3ccc(C(=O)O)cc3)s2)cc1

[87.5, 92.7, 70.6, 66, 90.8]
